Experiment: in vivo
Conditions: rat, iv
readoutType: Cmax (ng/mL)
Answers are plain numbers, in ng/mL.

Endpoint output: Cmax of `Cc1ccccc1CN(c1ccc(C#N)c(Cl)c1)[C@H]1CCN(S(C)(=O)=O)C1` . Value?
221

* * *

Assay: in vivo
Conditions: rat, iv
readoutType: clearance (mL/min/kg)
Numbers only, in mL/min/kg.

Endpoint output: clearance of `Cc1ccccc1CN(c1ccc(C#N)c(Cl)c1)[C@H]1CCN(S(C)(=O)=O)C1` . Value?
98

* * *

Assay: in vivo
Conditions: rat, iv
readoutType: half-life (h)
Answers are plain numbers, in h.

Endpoint output: half-life of `Cc1ccccc1CN(c1ccc(C#N)c(Cl)c1)[C@H]1CCN(S(C)(=O)=O)C1` . Value?
1.6

Entry source: ChEMBL document CHEMBL1153137
